- Tested on: A2780 ovarian cancer cells
- experiment.summary: Cellular proliferation in A2780 cells, Cell Titer Glo (Biological Method 4)
- Format: cell-based
- condition.info: Homo sapiens; ovarian cancer cell line A2780, Biological Method 4
test.readout: EC50

| compound | target.under.test | EC50 |
| --- | --- | --- |
| Nc1ccc(-c2cc(Nc3cccc4[nH]ncc34)nc(N3CCOCC3)n2)cn1 | A2780 ovarian cancer cells | < 10 µM |

Given N#Cc1ccc(Nc2cc(-c3cnc(N)cc3C(F)(F)F)nc(N3CCOCC3)n2)cc1 , state its recorded EC50.
< 10 µM

Requested read-out: EC50. Entry: Nc1ccc(-c2cc(N3CCOc4ccccc43)nc(N3CCOCC3)n2)cn1
< 10 µM

Find the recorded EC50 belonging to Nc1cc(C(F)(F)F)c(-c2cc(N3CCCOCC3)nc(N3CCOCC3)n2)cn1 and report it.
< 10 µM

Quick one: EC50 for Nc1ncc(-c2nc(N3CCOCC3)ncc2N)cn1 ?
< 25 µM

Tell me the measured EC50 of Nc1ncc(-c2cc(NC3CCOCC3)nc(N3CCOCC3)n2)c(C(F)(F)F)n1 , please.
< 10 µM

Suppose we examine the compound CC(=O)Nc1cc(-c2cnc(N)nc2)nc(N2CCOCC2)n1 ; what EC50 value has been reported?
< 10 µM

Data request, read-out EC50, for Nc1cc(Cl)c(-c2cc(Nc3ccncc3C(F)(F)F)nc(N3CCOCC3)n2)cn1
< 10 µM

// EC50 lookup, key: N#Cc1cc(N)ncc1-c1cc(N2CCOC(c3ccccc3)C2)nc(N2CCOCC2)n1 (stereo not drawn)
< 10 µM

Name the recorded EC50 for COc1ccc2ncc(Nc3cc(-c4ccc(N)nc4)nc(N4CCOCC4)n3)cc2c1 .
< 1 µM

Give the measured EC50 of Nc1ccc(-c2cc(Nc3ccnc4cc(C(F)(F)F)ccc34)nc(N3CCOCC3)n2)cn1 .
< 10 µM

Entry Nc1cc(C(F)(F)F)c(-c2nc(N3CCOCC3)nc(N3CCOCC3)c2F)cn1 has what EC50?
< 25 µM
